# Test system: SNB-78 CNS
# Protocol details: NCI tumour cell line growth inhibition, 48 h
Property: TGI; scope: individual compounds

O=C(O)CCC(N=Cc1nc(-c2ccccc2)oc1O)C(=O)O (centres undefined) | > 100 µM
O=c1ncc(F)cn1C1OC(CO)C(O)C1O (centres undefined) | > 100 µM
Cc1c(N2CCN(C)CC2)nc2ccc(Cl)cc2c1-c1ccccc1 | 39.8 µM

Challenge: Name the recorded TGI for "CCC/C(=N\NC(=S)N1CC2CCC(CC2)C1)c1ccccn1" .
Response given: 8.71 µM

Challenge: Which TGI is listed for "Oc1ccc2ccccc2c1N=Nc1ccsc1" ?
Response given: > 100 µM

Challenge: Please report the recorded TGI for CSc1nc(NC2OC(COC(C)=O)C(OC(C)=O)C(OC(C)=O)C2OC(C)=O)c2c(n1)OCC2=O (centres undefined) .
Response given: > 100 µM

Challenge: So what's the measured TGI for this one? "COC(=O)c1ccc(N=NN(C)COc2ccc(Br)cc2)cc1"
Response given: > 100 µM

* * *

Below, each of the compounds is paired with its reported TGI value.
# Tested on: HCT-116 colon
# Protocol details: NCI tumour cell line growth inhibition, 48 h

Use the examples below as a reference point.
CN1C(=O)C2C3C=C4c5ccccc5N(c5ccccc5)C4(C2C1=O)[C@H]1C(=O)N(C)C(=O)[C@@H]31 (stereo not given in full) | > 100 µM
CC12CCC3(OCCO3)C(OC(=O)c3ccccc3)=C1CCC21OCCO1 (stereo not given) | > 100 µM
COc1cc(-c2cc(O)c(-c3ccc4ccccc4n3)c(=O)[nH]2)cc(OC)c1OC | 62.2 µM
Cc1cccc2c1c(=O)c1c(O)c3c(cc1n2C)OC(C)(C)C=C3 | > 10 µM
COc1cc(C(=O)N2CCN(c3ncnc4ccccc34)CC2)c(N)cc1OCc1ccccc1 | 22.6 µM

Challenge: Item under review: "CCN(CC)CCCNCc1cc(-c2ccccc2)nc2ccccc12" . Reported TGI?
Response given: 17.9 µM

Challenge: So what's the measured TGI for this one? COC1CN(C)C(=Nc2cccc3ccccc23)S1 (stereo not given)
Response given: > 10 µM

Challenge: Value lookup for TGI; key = "Cc1csc(/C=C/C(=O)c2nnn(-c3ccnc4c(C(F)(F)F)cccc34)c2C)c1"
Response given: > 100 µM

Challenge: Recorded TGI for C[As](C)SCC(COC(=O)C(Cl)c1ccccc1)OC(=O)C(Cl)c1ccccc1 (stereo not given) , please?
Response given: 2.67 µM

Challenge: Quick one: TGI of CC(=O)Nc1c(C)cc2c(nc3n2CCC3OC(C)=O)c1[N+](=O)[O-] (stereo not given) ?
Response given: > 100 µM

* * *

# Tested on: M14 melanoma
# Protocol details: NCI tumour cell line growth inhibition, 48 h
Endpoint label: TGI

Please review the following examples before continuing.
O=C(Nc1ccc2[nH]c(C(=O)N3CC(CCl)c4c3cc([N+](=O)[O-])c3ccccc43)cc2c1)Nc1ccc2[nH]c(C(=O)N3CC(CCl)c4c3cc([N+](=O)[O-])c3ccccc43)cc2c1 (centres undefined) | > 100 µM
CC(=O)NC1(c2cc3ccccc3s2)CCCCCC1 | > 100 µM
CC(C)C(=O)Nc1cc(C(F)(F)F)ccc1[N+](=O)[O-] | > 100 µM

Challenge: Identify the measured TGI of "CO/N=C(\C)c1ccc(Nc2cc(-c3ccccc3)nc3ccc(OC)cc23)cc1" for M14 melanoma.
Response given: 4.77 µM

Challenge: Provide the documented TGI with M14 melanoma as the system for "Oc1ccc2ccccc2c1N=Nc1ccsc1"
Response given: > 100 µM

Challenge: Form field: TGI recorded for CC12CCC3(OCCO3)C(OC(=O)c3ccccc3)=C1CCC21OCCO1 (centres undefined) with M14 melanoma (enter value)
Response given: > 100 µM

Challenge: Any idea what TGI came out for "NCCOCCOCCNc1nc(-c2ccccc2)nc(N2CCN(c3ccccn3)CC2)n1" on M14 melanoma?
Response given: 5.31 µM

Challenge: Find TGI (M14 melanoma) for the entry C[C@@]12CCC[C@@](C)(C(=O)O)C1CC[C@]13C[C@@](O)(CO)[C@](O)(CCC12)C3 (some centres undefined)
Response given: > 100 µM

Challenge: What value of TGI on M14 melanoma does CC(C)=CC(Cc1ccccc1)S(=O)(=O)c1nc2ccccc2s1 (centres undefined) have?
Response given: 31.2 µM

* * *

# Tested on: ACHN renal
# Protocol details: NCI tumour cell line growth inhibition, 48 h; in the data active = GI50 below about 0.43 µM; inactive = the rest
Return exactly one item of active, inactive

For orientation, consider the following solved cases.
Cc1nc2ccccc2c(/C=C/c2ccc(Cl)cc2)c1C(=O)/C=C/c1ccc(C(F)(F)F)cc1 | active
N=c1ccn(O)cc1/C=C1/C(=O)Nc2ccccc21 | inactive
CC(=O)OC(C)(C)/C(C)=C/C(=O)O[C@H]1C(=O)O[C@@H]2C[C@H]3[C@H](C)C(=O)C(O[C@@H]4O[C@H](CO)[C@@H](O)[C@H](O)[C@H]4O)=C[C@]3(C)[C@H]3[C@@H](O)[C@H](O)[C@@]4(C(=O)O)OC[C@]32[C@@H]14 | inactive
C[As](C)SCC(COC(=O)C(Cl)c1ccccc1)OC(=O)C(Cl)c1ccccc1 (stereo unspecified) | inactive
CCN(CC)CCCNCc1cc(-c2ccccc2)nc2ccccc12 | inactive

Challenge: Given "COc1cc(NCCCN=C(N)NC(N)=NC(C)C)c2ncccc2c1" , state the outcome it received in this test.
Response given: inactive

Challenge: Assay outcome for "O=Nc1ccc(NO)c2ccccc12" : what was it?
Response given: inactive

Challenge: What call does the record list for "CC(C)(C)c1cc(-n2c(-c3ccc(Cl)cc3)nc3cc(C(=O)Nc4ccc(Cl)cc4)ccc32)n[nH]1" ?
Response given: inactive

Challenge: Could you kindly confirm the outcome this assay logged for "CN(Cc1ccccc1)c1ccc(CO)c(Cl)c1" ?
Response given: inactive

Challenge: Hey, what did the test say about "c1ccc(CN2COc3c(ccc4c3OCN(Cc3ccccc3)C4)C2)cc1" ?
Response given: active

Challenge: Which outcome did this test record for the compound C[C@@]12CCC[C@@](C)(C(=O)O)C1CC[C@]13C[C@@](O)(CO)[C@](O)(CCC12)C3 (stereo partly specified) ?
Response given: inactive

* * *

# System: EKVX NSCLC
# Protocol details: NCI tumour cell line growth inhibition, 48 h
Endpoint label: TGI

CCOC(=O)C1=CCOc2cc(N(C)C)ccc21 | > 100 µM
CO/N=C(\C)c1ccc(Nc2cc(-c3ccccc3)nc3ccc(OC)cc23)cc1 | 8.53 µM
CN(C)C(c1ccccc1)C1COC2Cc3ccccc3C1O2 (stereo unspecified) | > 100 µM

Challenge: GET /values?readout=TGI&item= "COc1cc(-c2cc(=O)c3c(O)c(CC=C(C)C)c(O)cc3o2)ccc1O"
Response given: 32.5 µM

Challenge: So what's the measured TGI for this one? "CCN(CC)CCCNCc1cc(-c2ccccc2)nc2ccccc12"
Response given: > 100 µM

* * *

TGI values for the compounds below.
# System: TK-10 renal
# Protocol details: NCI tumour cell line growth inhibition, 48 h
Numeric only. Scale: µM

Look over these answered cases.
C#Cc1c(/C=C/C(=O)OCC)ccc2ccccc12 | 79.1
CC1(C)Cc2nc3c(cc2C(=O)C1C=N/C(C#N)=C(\N)C#N)C(=O)C(C=N/C(C#N)=C(\N)C#N)C(C)(C)C3 (centres undefined) | 18
COc1ccc2c(=O)cc(C(Cl)(Cl)Cl)oc2c1 | 40.4

Now turn to the next compound.
Challenge: I'd like to know its TGI. The compound in question is Cc1c2c(c(O)c3c(O)cccc13)C(=O)C1(O)C(O)=C(C(=O)NCNc3ccc(C(N)=O)cn3)C(=O)C(N(C)C)C1C2 (centres undefined)
Response given: 49.2

* * *

# System: SF-295 CNS
# Protocol details: NCI tumour cell line growth inhibition, 48 h; in the data active means GI50 below about 0.43 µM; inactive means the rest
Write down the outcome that applies. Available outcomes: 1 for active, 0 for inactive

Challenge: For this compound, state the assay outcome: "COc1ccc2c(=O)cc(C(Cl)(Cl)Cl)oc2c1"
Response given: 0

Challenge: Which result was noted for this compound in the test: "NCCOCCOCCNc1nc(-c2ccccc2)nc(N2CCN(c3ccccn3)CC2)n1"
Response given: 0

Challenge: # lookup: test call for "CC(C)=CCC[C@](C)(O)[C@H]1CC[C@]2(C)[C@@H]1CC[C@@H]1[C@@]3(C)CC/C(=N/O)C(C)(C)[C@@H]3CC[C@]12C"
Response given: 0

Challenge: Given "COCc1cc(C(=O)Nc2cc([C@H]3CC[C@@H](OC(=O)NC(C)C)C3)[nH]n2)n(C)n1" , state the outcome it received in this test.
Response given: 0

Challenge: Field: outcome | Entry: "CCC/C(=N\NC(=S)N1CC2CCC(CC2)C1)c1ccccn1"
Response given: 1

Challenge: Assay outcome for "CS(=O)(=O)CCc1cccc(C(=O)c2cnn(-c3ccc(F)cc3)c2N)c1" : what was it?
Response given: 0
